Test system: MFM-223
run.description: Antiproliferation, CellTiter-Glo, 5 days, MFM-223
Type: cell-based
run.conditions: MFM-223, AR+ TNBC
pIC50: −log10 of the molar value.
observable: pIC50

Record summary for CNC(=O)c1ccc(N2C(=S)N(c3ccc(C#N)c(C(F)(F)F)c3)C(=O)C2(C)C)cc1F : reported pIC50 = < 5.00

---

Test system: MDA-MB-453 cells
run.description: Inhibition of proliferation of MDA-MB-453 cells (CCK-8 or CTG, 7-10 days)
Format: cell-based
run.conditions: Homo sapiens, co-incubation 7-10 days, CCK-8 or CTG, read-out: IC50 values against MDA-MB-453 cells
pIC50: −log10 of the molar value.
observable: pIC50

Below, 2 molecules whose answers are already recorded.
| molecule | pIC50 |
| --- | --- |
| CC1(C)[C@H](Oc2ccc(C#N)c(Cl)c2)C(C)(C)[C@H]1N1Cc2nc(C#C[C@H]3CC[C@H](N4CCN(c5ccc6c(c5)C(=O)N(C5CCC(=O)NC5=O)C6=O)CC4)CC3)ccc2C1=O (stereo partly drawn) | < 5.70 |
| N#Cc1ccc(O[C@H]2CC[C@H](NC(=O)c3cnc(N4C[C@@H]5[C@@H](CN6CCN(c7ccc8c(c7)C(=O)N(C7CCC(=O)NC7=O)C8=O)CC6)[C@@H]5C4)cn3)CC2)cc1Cl (stereo partly drawn) | < 5.70 |

// sample COc1cc(O[C@H]2C(C)(C)[C@H](NC(=O)c3ccc(N4CCC(CN5CCN(c6ccc(C(=O)N[C@H]7CCC(=O)NC7=O)c(F)c6)CC5)CC4)cc3)C2(C)C)ccc1C#N , its pIC50 was ≥ 5.70
